biological target: PHD1 (Homo sapiens, UniProt Q96KS0); assay: Biochemical HIF-PH enzyme assay
Sequence (Q96KS0 whole entry): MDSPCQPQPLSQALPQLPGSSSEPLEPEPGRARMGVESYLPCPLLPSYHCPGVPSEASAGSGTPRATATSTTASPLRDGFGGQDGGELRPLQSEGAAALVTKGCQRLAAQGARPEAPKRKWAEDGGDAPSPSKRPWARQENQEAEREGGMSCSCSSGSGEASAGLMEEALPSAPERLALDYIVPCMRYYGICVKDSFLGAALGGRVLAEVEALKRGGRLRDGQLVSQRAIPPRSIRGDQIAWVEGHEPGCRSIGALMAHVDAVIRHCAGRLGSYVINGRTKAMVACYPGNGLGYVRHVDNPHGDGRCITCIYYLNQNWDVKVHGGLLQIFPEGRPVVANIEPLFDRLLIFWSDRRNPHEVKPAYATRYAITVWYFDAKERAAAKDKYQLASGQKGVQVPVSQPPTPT
Lab note - cut at 0.5 µM for IC50: Fulfilled if strictly below, Not fulfilled if not.

Worked cases, answers included:
COc1ccc(-c2c[nH]n(-c3ccccn3)c2=O)cn1
Fulfilled
O=c1c(-c2cccnc2)c[nH]n1-c1cc(CO)ccn1
Not fulfilled
O=c1c(-c2cccnc2)c[nH]n1-c1ccc(COCc2ccccc2)cn1
Not fulfilled
O=c1c(-c2cnccn2)c[nH]n1-c1ccccn1
Not fulfilled
Cc1ccc(-c2c[nH]n(-c3ccccn3)c2=O)cn1
Not fulfilled

Q: Bench note: check whether O=c1c(-n2ccnn2)c[nH]n1-c1ccccn1 shows IC50 below 0.5 µM
Result: Not fulfilled

Q: Bench note: check whether S=c1c(-c2cccnc2)c[nH]n1-c1ccccn1 shows IC50 below 0.5 µM
Result: Not fulfilled

Q: Bench note: check whether COc1cc(-n2[nH]cc(-c3cccnc3)c2=O)ncn1 shows IC50 below 0.5 µM
Result: Not fulfilled

Q: Bench note: check whether Cc1ccnc(-n2[nH]cc(-c3cccnc3)c2=O)c1 shows IC50 below 0.5 µM
Result: Fulfilled

Q: Bench note: check whether O=c1c(-c2cccnc2)n[nH]n1-c1ccccn1 shows IC50 below 0.5 µM
Result: Not fulfilled

Q: Bench note: check whether Cc1cn(-c2c[nH]n(-c3ccccn3)c2=O)nn1 shows IC50 below 0.5 µM
Result: Fulfilled

Q: Bench note: check whether Oc1c(-c2cccnc2)cnn1-c1ccccn1 shows IC50 below 0.5 µM
Result: Fulfilled

Q: Bench note: check whether Oc1c(-c2cccnc2)ncnc1-c1ccccn1 shows IC50 below 0.5 µM
Result: Not fulfilled

Q: Bench note: check whether O=c1c(-c2cccnc2)c[nH]n1-c1cc(N2CCOCC2)ncn1 shows IC50 below 0.5 µM
Result: Fulfilled

Q: Bench note: check whether O=c1c(-c2cccnc2)c[nH]n1-c1cc(N2CCCCC2)ncn1 shows IC50 below 0.5 µM
Result: Not fulfilled

Q: Bench note: check whether Cc1ccc(-n2[nH]cc(-c3cccnc3)c2=O)nc1 shows IC50 below 0.5 µM
Result: Not fulfilled

Q: Bench note: check whether Cc1cncc(-c2cnn(-c3ccccn3)c2O)c1 shows IC50 below 0.5 µM
Result: Not fulfilled

----------
assay: Aqueous solubility; format: physicochemical; conditions: water
property_label: solubility (µg/mL)
Just the number please, in µg/mL, no unit attached.

Oc1c(-n2ccnc2)cnn1-c1cc(N2CCCCC2)ncn1
520

Attention now shifts to the item below.
Q: Data request, read-out solubility, for Oc1c(-n2ccnn2)cnn1-c1cc(N2CCOCC2)ncn1
Result: 140

----------
# chromatographic logD per entry
assay: logD 7.5 by HPLC retention time correlation; assay type: physicochemical; conditions: pH 7.5

Guide cases for chromatographic logD, answers given:
Oc1c(-c2cccnc2)cnn1-c1ccccn1
0.6
Oc1c(-n2ccnn2)cnn1-c1cc(N2CCOCC2)ncn1
0.27

Q: Data request, read-out chromatographic logD, for Oc1c(-n2ccnc2)cnn1-c1cc(N2CCCCC2)ncn1
Result: 1

----------
tested on: major CYP isoforms; assay: CYP profile; format: in vitro ADME
property_label: CYP profile / CYP inhibition

Oc1c(-c2cccnc2)cnn1-c1ccccn1
clean

----------
test system: endogenous HIF in recombinant A549 lung carcinoma cell; experiment: HIF-reporter cell assay; assay type: cell-based; conditions: read-out: EC50 HIF-reporter cell assay; A549 HIFRE2 luciferase reporter
property_label: EC50

Q: Data request, read-out EC50, for [Cl][Co][Cl] [cobalt chloride, reference compound]
Result: ~50 µM

----------
test system: EPO in HuH cells; assay: EPO induction in hepatoma HuH cells; type: cell-based, human; details: Homo sapiens, read-out: EC50 EPO mRNA induction
property_label: pEC50
On this scale, pEC50 is minus log10 of a concentration expressed in M (mol/L).

Q: Data request, read-out pEC50, for Oc1c(-c2cccnc2)cnn1-c1ccccn1
Result: 5.72

----------
# pIC50 per entry
biological target: PHD1 (Homo sapiens, UniProt Q96KS0); assay: Biochemical HIF-PH enzyme assay
On this scale, pIC50 is minus log10 of a concentration expressed in M (mol/L).

Guide cases for pIC50, answers given:
CCOC(=O)c1ccc(-n2[nH]cc(-c3cccnc3)c2=O)nc1
6.19
Oc1c(-n2ccnc2)cnn1-c1cc(N2CCCCC2)ncn1
6.30
Cc1nn(-c2ccccn2)c(O)c1-c1cccnc1
5.46

Attention now shifts to the item below.
Q: Data request, read-out pIC50, for Cc1cccc(-n2[nH]cc(-c3cccnc3)c2=O)n1
Result: 5.05

----------
target: PHD1 (Homo sapiens); assay: Biochemical HIF-PH enzyme assay
property_label: pIC50
On this scale, pIC50 is minus log10 of a concentration expressed in M (mol/L).

Guide cases for pIC50, answers given:
O=c1c(-n2cnc(C(F)(F)F)c2)c[nH]n1-c1ccccn1
6.82
O=c1c(-c2cccnc2)c[nH]n1-c1cc(COCc2ccccc2)ccn1
5.54
N#Cc1cncc(-c2cnn(-c3ccccn3)c2O)c1
6.00

Attention now shifts to the item below.
Q: Lookup: pIC50 / PHD1 (Homo sapiens) / N#Cc1ccc(-c2c[nH]n(-c3ccccn3)c2=O)cn1
Result: 7.00

----------
biological target: PHD1 (Homo sapiens, UniProt Q96KS0); assay: Biochemical HIF-PH enzyme assay
pIC50: −log10 of the molar value.
property_label: pIC50

Guide cases for pIC50, answers given:
Cn1cc(-c2cccnc2)c(=O)n1-c1ccccn1 [Compound 9]
< 4.30
Nc1c(-c2cccnc2)cnn1-c1ccccn1 [Compound 6]
< 4.30

Q: Lookup: pIC50 / PHD1 (Homo sapiens, UniProt Q96KS0) / COc1c(-c2cccnc2)cnn1-c1ccccn1 [Compound 8]
Result: < 4.30
